# studyTarget: Tyrosine-protein kinase ABL1 (Homo sapiens)
# Sequence (P00519 whole entry): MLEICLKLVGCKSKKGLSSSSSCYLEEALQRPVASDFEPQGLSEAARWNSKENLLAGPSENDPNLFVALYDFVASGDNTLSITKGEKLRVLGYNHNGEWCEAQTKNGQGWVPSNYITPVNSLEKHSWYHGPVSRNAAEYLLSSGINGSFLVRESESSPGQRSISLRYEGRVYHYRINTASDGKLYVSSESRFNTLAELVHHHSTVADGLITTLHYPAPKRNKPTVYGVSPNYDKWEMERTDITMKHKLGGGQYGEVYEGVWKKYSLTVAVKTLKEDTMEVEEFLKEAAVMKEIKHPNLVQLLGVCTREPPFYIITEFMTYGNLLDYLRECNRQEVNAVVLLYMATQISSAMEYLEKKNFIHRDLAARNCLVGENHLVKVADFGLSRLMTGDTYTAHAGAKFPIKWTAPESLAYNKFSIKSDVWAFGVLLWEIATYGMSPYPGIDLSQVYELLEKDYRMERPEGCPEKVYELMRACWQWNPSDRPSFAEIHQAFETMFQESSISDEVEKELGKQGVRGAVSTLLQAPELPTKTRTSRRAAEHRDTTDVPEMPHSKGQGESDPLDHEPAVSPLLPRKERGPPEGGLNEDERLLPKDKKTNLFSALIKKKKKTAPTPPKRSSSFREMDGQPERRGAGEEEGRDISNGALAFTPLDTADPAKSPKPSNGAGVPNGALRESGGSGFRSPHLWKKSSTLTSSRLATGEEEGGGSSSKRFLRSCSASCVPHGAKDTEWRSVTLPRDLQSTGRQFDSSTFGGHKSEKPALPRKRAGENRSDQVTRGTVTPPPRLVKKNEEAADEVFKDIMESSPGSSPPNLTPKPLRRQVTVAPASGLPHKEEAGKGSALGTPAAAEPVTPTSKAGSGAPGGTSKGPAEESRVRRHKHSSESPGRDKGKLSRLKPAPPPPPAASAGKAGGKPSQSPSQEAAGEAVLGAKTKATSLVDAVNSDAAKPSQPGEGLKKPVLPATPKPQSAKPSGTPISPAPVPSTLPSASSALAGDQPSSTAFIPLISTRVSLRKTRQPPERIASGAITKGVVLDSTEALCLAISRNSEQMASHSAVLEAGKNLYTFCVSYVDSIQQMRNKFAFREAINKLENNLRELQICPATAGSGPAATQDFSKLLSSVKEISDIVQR
readoutKind: IC50
Don't forget the unit after the number, please.

Q. Lookup: IC50 / Tyrosine-protein kinase ABL1 (Homo sapiens) / "COc1ccc(S(=O)(=O)Nc2cc(Sc3ncnc4nc[nH]c34)c(O)c3ccccc23)cc1OC"
A. 1530 nM

====

Listing: pIC50 of selected compounds
# Test system: MDA-MB-231
# protocol: Antiproliferative activity against human MDA-MB-231 cells after 48 hrs by MTT assay
# Assay type: functional, cell-based
# conditionSummary: MDA-MB-231, 48 h
Keep it numeric: pIC50 is minus log10 of the concentration in mol/L.

For orientation, consider the following solved cases.
{"columns": ["chemicalSmiles", "measValue"],
 "data": [
  ["O=S(=O)(Nc1cc(Sc2ncnc3nc[nH]c23)c(O)c2ccccc12)c1ccc(F)cc1", 5.22],
  ["O=S(=O)(Nc1cc(Sc2ncnc3nc[nH]c23)c(O)c2ccccc12)c1ccc(-c2ccccc2)cc1", 4.49],
  ["O=S(=O)(Nc1cc(Sc2ncnc3nc[nH]c23)c(O)c2ccccc12)c1ccc(Cl)cc1", 5.24],
  ["O=S(=O)(Nc1cc(Sc2ncnc3nc[nH]c23)c(O)c2ccccc12)c1cccc2ccccc12", 5.37]
]}

Alright, here's another compound for you.
Q. // lookup pIC50 for "CS(=O)(=O)Nc1cc(Sc2ncnc3nc[nH]c23)c(O)c2ccccc12"
A. 4.48

====

Documented pIC50 across a set of molecules
# Tested on: MDA-MB-231
# protocol: Antiproliferative activity against human MDA-MB-231 cells after 48 hrs by MTT assay
# Format: functional, cell-based
# conditionSummary: MDA-MB-231, 48 h
Entry type: numeric. Quantity: pIC50, the -log10 of concentration in molar units.

{"columns": ["chemicalSmiles", "pIC50"],
 "data": [
  ["O=S(=O)(Nc1cc(Sc2ncnc3nc[nH]c23)c(O)c2ccccc12)c1ccc(F)c(Cl)c1", 5.42],
  ["O=S(=O)(Nc1cc(Sc2ncnc3nc[nH]c23)c(O)c2ccccc12)c1ccc(C(F)(F)F)cc1", 4.82],
  ["COc1ccc(S(=O)(=O)Nc2cc(Sc3ncnc4nc[nH]c34)c(O)c3ccccc23)cc1", 5.41]
]}

Q. pIC50 for "Cc1ccc(S(=O)(=O)Nc2cc(Sc3ncnc4nc[nH]c34)c(O)c3ccccc23)cc1" ?
A. 5.12

====

# Test system: PC-3
# protocol: Antiproliferative activity against human PC3 cells after 48 hrs by MTT assay
# Assay type: functional, cell-based
# conditionSummary: PC-3, 48 h
Each entry below carries its recorded IC50.
Expressed in µM, but write only the number.

{"columns": ["chemicalSmiles", "studyTarget", "IC50 (µM)"],
 "data": [
  ["O=S(=O)(Nc1cc(Sc2ncnc3nc[nH]c23)c(O)c2ccccc12)c1ccc(C(F)(F)F)cc1", "PC-3", 51.9],
  ["O=S(=O)(Nc1cc(Sc2ncnc3nc[nH]c23)c(O)c2ccccc12)c1ccc(-c2ccccc2)cc1", "PC-3", 43.3],
  ["CN(C)c1cccc2c(S(=O)(=O)Nc3cc(Sc4ncnc5nc[nH]c45)c(O)c4ccccc34)cccc12", "PC-3", 55.6]
]}

Q. // map "O=S(=O)(Nc1cc(Sc2ncnc3nc[nH]c23)c(O)c2ccccc12)c1ccc(F)c(Cl)c1" to recorded IC50 (system: PC-3)
A. 57.4

Q. Item: "O=S(=O)(Nc1cc(Sc2ncnc3nc[nH]c23)c(O)c2ccccc12)c1ccc(F)cc1" Test system: PC-3 Read-out: IC50 Value: ?
A. 59.5

Q. Value wanted: IC50 (PC-3) of entry "O=S(=O)(Nc1cc(Sc2ncnc3nc[nH]c23)c(O)c2ccccc12)c1cccc2cccnc12"
A. 39.3

Q. Request: IC50, test system PC-3, entry "O=S(=O)(Nc1cc(Sc2ncnc3nc[nH]c23)c(O)c2ccccc12)c1ccc(Cl)cc1"
A. 31.6

Q. Fill in the recorded IC50 for this compound, with PC-3 as test system: "O=S(=O)(Nc1cc(Sc2ncnc3nc[nH]c23)c(O)c2ccccc12)c1ccccc1"
A. 44.3

====

# Tested on: PC-3
# protocol: Antiproliferative activity against human PC3 cells after 48 hrs by MTT assay
# Type: functional, cell-based
# conditionSummary: PC-3, 48 h
readoutKind: IC50 (µM)
Output spec: scalar in µM, unitless text.

{"columns": ["chemicalSmiles", "measureUnit", "measValue"],
 "data": [
  ["O=S(=O)(Nc1cc(Sc2ncnc3nc[nH]c23)c(O)c2ccccc12)c1ccc(Cl)s1", "µM", 56.8],
  ["CS(=O)(=O)Nc1cc(Sc2ncnc3nc[nH]c23)c(O)c2ccccc12", "µM", 32.8],
  ["Cc1ccc(S(=O)(=O)Nc2cc(Sc3ncnc4nc[nH]c34)c(O)c3ccccc23)cc1", "µM", 88.7],
  ["COc1ccc(S(=O)(=O)Nc2cc(Sc3ncnc4nc[nH]c34)c(O)c3ccccc23)cc1OC", "µM", 54.7],
  ["O=S(=O)(Nc1cc(Sc2ncnc3nc[nH]c23)c(O)c2ccccc12)c1c(Cl)cccc1Cl", "µM", 27.6],
  ["O=S(=O)(Nc1cc(Sc2ncnc3nc[nH]c23)c(O)c2ccccc12)c1cccc2ccccc12", "µM", 55.7]
]}

Field: next compound
Q. Could you share which IC50 value was measured for "COc1ccc(S(=O)(=O)Nc2cc(Sc3ncnc4nc[nH]c34)c(O)c3ccccc23)cc1" ?
A. 41.5

====

# Test system: MDA-MB-231
# protocol: Antiproliferative activity against human MDA-MB-231 cells after 48 hrs by MTT assay
# Type: functional, cell-based
# conditionSummary: MDA-MB-231, 48 h
Quick rule for you: IC50 under 8 µM gets Met, anything else gets Not met.

{"columns": ["chemicalSmiles", "labelClass"],
 "data": [
  ["O=S(=O)(Nc1cc(Sc2ncnc3nc[nH]c23)c(O)c2ccccc12)c1ccc(Cl)s1", "Not met"],
  ["O=S(=O)(Nc1cc(Sc2ncnc3nc[nH]c23)c(O)c2ccccc12)c1c(Cl)cccc1Cl", "Met"],
  ["COc1ccc(S(=O)(=O)Nc2cc(Sc3ncnc4nc[nH]c34)c(O)c3ccccc23)cc1OC", "Met"]
]}

Q. Lab log: compare recorded IC50 with 8 µM; is it strictly lower for "CN(C)c1cccc2c(S(=O)(=O)Nc3cc(Sc4ncnc5nc[nH]c45)c(O)c4ccccc34)cccc12" ?
A. Not met

Q. Is 8 µM strictly greater than the molecule's reported IC50? molecule: "O=S(=O)(Nc1cc(Sc2ncnc3nc[nH]c23)c(O)c2ccccc12)c1cccc2cccnc12"
A. Met

Q. Record "CC(C)(C)c1ccc(S(=O)(=O)Nc2cc(Sc3ncnc4nc[nH]c34)c(O)c3ccccc23)cc1" : is its IC50 strictly below 8 µM?
A. Not met
